- Test system: anti collagen antibodies induced arthritis (ACAIA)
- experiment.notes: Anti collagen antibodies induced arthritis (ACAIA) in mice, intra-articular treatment: paw thickness, arthritis clinical score, body weight;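 note: mouse arthritis induced by IV anti-collagen mAb on day 0 plus IP LPS on day 4, with body weight, caliper paw thickness and 0-4 paw score tracked against a day 0 baseline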
- recorded.conditions: BETi1 0.1 mg/kg IA (Group 4); Av
value.type: Weight per day, Day 6

Item "Cn1cc(-c2cccc(O)c2Oc2ccccc2)c2cc[nH]c2c1=O" has what recorded Weight per day, Day 6? 18.1 g

###

- experiment.notes: Toxicokinetics in dogs after intra-articular injection: plasma concentrations
- Format: in vivo, Beagle dogs
- recorded.conditions: both sexes, Beagle, dog, plasma, other: intra-articular injection, 150 mg/animal; 150 mg intra-articular; 1 h; read-out: Plasma concentration of BETi1
value.type: concentration at 1 h (ng/mL)
// return numeric value only (unit: ng/mL, not printed)

Item Cn1cc(-c2cccc(O)c2Oc2ccccc2)c2cc[nH]c2c1=O [BETi1] has what recorded concentration at 1 h? 42.2
